Test system: PtJBMTm3
Assay: Radiochemical methyltransferase assay (detoxification activity) with PtJBMTm3
Assay type: biochemical
Conditions: 1 mM substrate, 3 μM 14C-SAM, 25° C., 30 min; relative to the activity of PtJBMTm3 with jasmonic acid set as 1
Label TRUE for high-side Relative assay activity of PtJBMT M3 (at or above 60%) and FALSE for low-side Relative assay activity of PtJBMT M3 (below it).

COMPOUND: O=C(O)CCCc1c[nH]c2ccccc12 [IBA]
TARGET_OR_SYSTEM: PtJBMTm3
CAT: FALSE
--
COMPOUND: O=C(O)Cc1c[nH]c2cccc(Cl)c12 [4-Cl-IAA]
TARGET_OR_SYSTEM: PtJBMTm3
CAT: FALSE
--
COMPOUND: O=C(O)c1c(Cl)ccc(Cl)c1Cl [2,3,6 Trichloro-benzoic acid]
TARGET_OR_SYSTEM: PtJBMTm3
CAT: TRUE
--
COMPOUND: O=C(O)c1nc(Cl)ccc1Cl [clopyralid]
TARGET_OR_SYSTEM: PtJBMTm3
CAT: TRUE
--
COMPOUND: O=C(O)COc1ccc(Cl)cc1Cl [2,4-D, 2,4-dichlorophenoxyacetic acid]
TARGET_OR_SYSTEM: PtJBMTm3
CAT: FALSE
--
COMPOUND: O=C(O)Cc1cccc2ccccc12 [NAA]
TARGET_OR_SYSTEM: PtJBMTm3
CAT: TRUE
--
COMPOUND: O=C(O)COc1cc(Cl)c(Cl)cc1Cl [2,4,5-T]
TARGET_OR_SYSTEM: PtJBMTm3
CAT: FALSE
--
COMPOUND: Nc1c(Cl)c(F)nc(OCC(=O)O)c1Cl [fluroxypyr]
TARGET_OR_SYSTEM: PtJBMTm3
CAT: FALSE
--
COMPOUND: O=C(O)c1c(Cl)ccc2cc(Cl)cnc12 [quinclorac]
TARGET_OR_SYSTEM: PtJBMTm3
CAT: TRUE
--
COMPOUND: Nc1c(Cl)c(Cl)nc(C(=O)O)c1Cl [picloram]
TARGET_OR_SYSTEM: PtJBMTm3
CAT: TRUE
